- test-target: T1, ALK 001P
- T1 construct: ALK (1-19) is described only as a region comprising a secretory signal, and no cleavage site is stated; Expressed in Expi293 cells and captured on a Protein A chip through its Fc
- protocol-text: SPR, Biacore 8K; ALK 001P captured on Protein A chip, ligand as analyte, 6 concentrations from 20 nM
quantity-measured: binding result

Ligand 017P (ligand) DGHHHHHHGSLQDSEVNQEAKPEVKPEVKPETHINLKVSDGSSEIFFKIKKTTPLRRLMEAFAKRQGKEMDSLTFLYDGIEIQADQTPEDLDMEDNDIIEAHREQIGGLEVLFQGPMKDKFLKHLTGPLYFSPKCSKHFHRLYHNTRDCTIPAYYKRCARLLTRLAVSPVCMEDKQ ... binds
Ligand 010P (ligand) DGHHHHHHGSLQDSEVNQEAKPEVKPEVKPETHINLKVSDGSSEIFFKIKKTTPLRRLMEAFAKRQGKEMDSLTFLYDGIEIQADQTPEDLDMEDNDIIEAHREQIGGLEVLFQGPSPEQRVEIVPRDLRMKDKFLKHLTGPLYFSPKCSKHFHRLYHNTRDCTIPAYYKRCARLLTRLAVSPVCMEDKQ ... binds
Ligand 022P (ligand) DGHHHHHHGSLQDSEVNQEAKPEVKPEVKPETHINLKVSDGSSEIFFKIKKTTPLRRLMEAFAKRQGKEMDSLTFLYDGIEIQADQTPEDLDMEDNDIIEAHREQIGGLEVLFQGPGPLYFSPKCSKHFHRLYHNTRDCTIPAYYKRCARLLTRLAVSPVCMEDKQ ... binds
Ligand 011P (ligand, also called Li 011P) DGHHHHHHGSLQDSEVNQEAKPEVKPEVKPETHINLKVSDGSSEIFFKIKKTTPLRRLMEAFAKRQGKEMDSLTFLYDGIEIQADQTPEDLDMEDNDIIEAHREQIGGLEVLFQGPEQRVEIVPRDLRMKDKFLKHLTGPLYFSPKCSKHFHRLYHNTRDCTIPAYYKRCARLLTRLAVSPVCMEDKQ ... binds
Ligand 006P (ligand) DGHHHHHHGSLQDSEVNQEAKPEVKPEVKPETHINLKVSDGSSEIFFKIKKTTPLRRLMEAFAKRQGKEMDSLTFLYDGIEIQADQTPEDLDMEDNDIIEAHREQIGGLEVLFQGPGRAEAAGLGPSPEQRVEIVPRDLRMKDKFLKHLTGPLYFSPKCSKHFHRLYHNTRDCTIPAYYKRCARLLTRLAVSPVCMEDKQ ... binds

Here's the next entry for you.
What measured binding result goes with Ligand 003P (ligand) DGHHHHHHGSLQDSEVNQEAKPEVKPEVKPETHINLKVSDGSSEIFFKIKKTTPLRRLMEAFAKRQGKEMDSLTFLYDGIEIQADQTPEDLDMEDNDIIEAHREQIGGLEVLFQGPAEAAGLGPSPEQRVEIVPRDLRMKDKFLKHLTGPLYFSPKCSKHFHRLYHNTRDCTIPAYYKRCARLLTRLAVSPVCMEDKQ ? binds
